B1: EHMT1 (parent)
chain: SARQGELQKVLLMLVDGIDPNFKM

# Variants of: B1
# assay.name: protein stability index of a GFP-peptide fusion (GPS, HEK-293T) (PSI 1-6); higher = more stable;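 also: lentivirally expressed fusions sorted by FACS into six bins by GFP to DsRed ratio, PSI derived from sequencing read proportions per bin multiplied by bin number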
# experimental.conditions: c terminus: a fixed tail appended
property.name: protein stability index

1) SARQGLLQKVLLMLVDGIDPNFKM [E6L]	1.99
2) SARQGELQKVLLMLVDGIDPNFKA [M24A]	2.04
3) SARQGELQKVLLMLVDGIDPKFKM [N21K]	1.96
4) SARQGELQKVLLMLVDGIDPNFTM [K23T]	2.02
